Assign MIC to each entry below.
system: Escherichia coli; test: Antibacterial activity against Escherichia coli assessed as growth inhibition after 24 hr by two-fold serial dilution method; type: functional; conditions: Escherichia coli, 24 h
Entry rule: numbers only, all in µg/mL.

// fetch Escherichia coli MIC for `O=C1c2cccc3cccc(c23)C(=O)N1c1ccc([N+](=O)[O-])cc1`
4

I'm curious: which MIC was measured for `O=C1c2cccc3cccc(c23)C(=O)N1c1ccc([N+](=O)[O-])cc1[N+](=O)[O-]` tested on Escherichia coli?
4

Any idea what MIC came out for `O=C(O)c1ccc(N2C(=O)c3cccc4cccc(c34)C2=O)cc1` on Escherichia coli?
3.9

Write down the reported MIC of `O=c1c2ccccc2c2ccccc2c(=O)n1-c1ccc([N+](=O)[O-])cc1[N+](=O)[O-]` , test system: Escherichia coli.
4
